experiment_summary: Selectivity index, ratio of IC50 for HEK293T cells to MIC for Staphylococcus aureus CMCC(B) 26003
Type: toxicity
details: human, read-out: Selectivity Index
Reported values of selectivity ratio for individual entries
metric: selectivity ratio

| item_smiles | metric | value |
| --- | --- | --- |
| C/C(=N/NC(=N)N)c1cn(S(=O)(=O)c2ccc(C)cc2)c2ccccc12 | selectivity ratio | 4.89 |
| C/C(=N/NC(=N)N)c1cn(S(=O)(=O)c2ccc(C)cc2)c2ccc(Br)cc12 | selectivity ratio | 12.6 |
| Cc1ccc(S(=O)(=O)n2cc(/C=N\NC(=N)N)c3ccccc32)cc1 | selectivity ratio | 7.68 |
| N=C(N)N/N=C\c1cn(S(=O)(=O)c2ccccc2)c2ccc(Br)cc12 | selectivity ratio | 0.47 |
| Cc1ccc(S(=O)(=O)n2cc(/C=N\NC(=N)N)c3cc(Br)ccc32)cc1 | selectivity ratio | 31.8 |
| CC/C(=N/NC(=N)N)c1cn(S(=O)(=O)c2ccc(C)cc2)c2ccc(Br)cc12 | selectivity ratio | 13.3 |

---

experiment_summary: Selectivity index, ratio of IC50 for HEK293T cells to MIC for multidrug-resistant Pseudomonas aeruginosa ATCC BAA-2111
Assay type: toxicity
details: human, read-out: Selectivity Index
metric: selectivity ratio

| item_smiles | value |
| --- | --- |
| Cc1ccc(S(=O)(=O)n2cc(/C=N\NC(=N)N)c3cc(Br)ccc32)cc1 | < 0.99 |
| C/C(=N/NC(=N)N)c1cn(S(=O)(=O)c2ccc(C)cc2)c2ccc(Br)cc12 | < 0.79 |
| N=C(N)N/N=C\c1cn(S(=O)(=O)c2ccccc2)c2ccc(Br)cc12 | < 0.94 |
| Cc1ccc(S(=O)(=O)n2cc(/C=N\NC(=N)N)c3ccccc32)cc1 | 7.67 |
| C/C(=N/NC(=N)N)c1cn(S(=O)(=O)c2ccc(C)cc2)c2ccccc12 | < 0.61 |
| CC/C(=N/NC(=N)N)c1cn(S(=O)(=O)c2ccc(C)cc2)c2ccc(Br)cc12 | < 0.83 |

---

Reported values of selectivity ratio for individual entries
experiment_summary: Selectivity index, ratio of IC50 for HEK293T cells to MIC for Pseudomonas aeruginosa CMCC 10104
Assay type: toxicity
details: human, read-out: Selectivity Index

| item_smiles | op | selectivity ratio |
| --- | --- | --- |
| C/C(=N/NC(=N)N)c1cn(S(=O)(=O)c2ccc(C)cc2)c2ccccc12 | = | 4.89 |
| Cc1ccc(S(=O)(=O)n2cc(/C=N\NC(=N)N)c3cc(Br)ccc32)cc1 | < | 0.25 |
| N=C(N)N/N=C\c1cn(S(=O)(=O)c2ccccc2)c2ccc(Br)cc12 | = | 7.5 |
| CC/C(=N/NC(=N)N)c1cn(S(=O)(=O)c2ccc(C)cc2)c2ccc(Br)cc12 | < | 0.21 |
| Cc1ccc(S(=O)(=O)n2cc(/C=N\NC(=N)N)c3ccccc32)cc1 | = | 7.68 |
| C/C(=N/NC(=N)N)c1cn(S(=O)(=O)c2ccc(C)cc2)c2ccc(Br)cc12 | < | 0.2 |

---

Test system: Staphylococcus aureus
experiment_summary: Antibacterial activity against methicillin-resistant Staphylococcus aureus ATCC 33591 measured after 24 hrs by ELISA
Format: functional
details: ATCC 33591, 24 h
Sorting guide: entries reporting MIC beneath 2 µM go in the Y pile, the rest go in the N pile.

| compound | system_tested | class_assignment |
| --- | --- | --- |
| C/C(=N/NC(=N)N)c1cn(S(=O)(=O)c2ccc(C)cc2)c2ccccc12 | Staphylococcus aureus | N |
| Cc1ccc(S(=O)(=O)n2cc(/C=N\NC(=N)N)c3ccccc32)cc1 | Staphylococcus aureus | N |
| COc1c(N2CCNC(C)C2)c(F)cc2c(=O)c(C(=O)O)cn(C3CC3)c12 (configuration not stated) [GATIFLOXACIN] | Staphylococcus aureus | Y |
| CC1(C)S[C@@H]2[C@H](NC(=O)Cc3ccccc3)C(=O)N2[C@H]1C(=O)O [PENICILLIN G] | Staphylococcus aureus | N |
| C/C(=N/NC(=N)N)c1cn(S(=O)(=O)c2ccc(C)cc2)c2ccc(Br)cc12 | Staphylococcus aureus | N |
| CCn1cc(C(=O)O)c(=O)c2cc(F)c(N3CCNCC3)cc21 [NORFLOXACIN] | Staphylococcus aureus | Y |
| N=C(N)N/N=C\c1cn(S(=O)(=O)c2ccccc2)c2ccc(Br)cc12 | Staphylococcus aureus | N |
